target: T1, human full-length Notch3 with C-terminal FLAG tag, stably expressed on 293 FlpIn (TREx) cells (human, UniProt Q9UM47 40-2321); assay: FACS, phage scFv
T1 construct: whole, on cells; made by the same strategy as the Notch1 line; also called 293-N3; hN3

binder: N1wc241 (scFv, V domains shown, phage scFv) VH: EVQLVQSGAEVKKPGASVKVSCKTSGYTFNDYYHHWVRQAPGQGLEWMGWINPHTGVANYAEKYKGRLAMTGDTSISTIYMDLSSLISDDTAIYFCARERSEWRNTVSSPSEYFHHWGKGTLVTVSS VL: QSVLTQPPSASGTPGQRVTISCSGSFSNIGSNNVYWYQQLAGTAPKLLIYRNNERPSGVPDRFSGSKSGTSASLAISGLRSEDEADYYCAVRDDSLSGHYVFGSGTKVTVL
binding result: binds
//
binder: hN1S3-153 (scFv, V domains shown, phage scFv) VH: QVQLQESGGGLVQPGGSLSLSCATSGFTFGNYVMRWVRQAPGKGLEWVSTITEGGGDFIYYADSVKGRFAISRDNSKSTVYLHMNGLRVEDTAVYYCAKSGGDDNSNYNFEYWGQGTLVTVSS VL: QAVLTQPSSVSGAPGQRVIISCTGTSSNTGAGYYVNWYQQLPGAAPKVLIFGNDNRPSGVPDRFSGAKSGTSASLAITGLQAEDEADYYCQSYDRSLSGWVFGGGTKLTVL
binding result: binds
//
binder: N1wc132 (scFv, V domains shown, phage scFv) VH: QVQLVQSGAEVKKPGASVKVSCKASGYNFTGYYLHWVRQAPGQGLEWMGWINPNSGGTDYAQKFQGRVTVTRDTSISTAYMELGGLRSDDTAVYYCVSDSFDHWGRGTLVTVSS VL: QSVLTQPPSASGTPGQRVTISCSGSSSNIGSNPVNWYQQLPGSAPKLLVYSDDQRPSGVPDRFSGSKSGASASLAISGLQSEDESDYYCAAWDDSQNAVVFGGGTKVTVL
binding result: binds
